tested on: Mycobacterium intracellulare; assay: microbe, parasite or virus in culture; assay type: cell-based; conditions: Experiment 2; three replicate columns; read-out: MIC (µM) Mycobacterium intracellulare
*1 amine or outer side, *2 acyl side, *3 side chain or, on linkers, in order; H or OH if unused. Where a SMILES comes first, the peptide text is derived from it. [ ]: non-standard residue; d: D form. X1 = C#CCn1cc(C[C@H](N[*:1])C(=O)[*:2])c2ccccc21; NMeLeu(5-OH,4R) = CN[C@@H](C[C@@H](C)CO)C(=O)O; Phe(βR-OMe) = CO[C@H](c1ccccc1)[C@H](N)C(=O)O; Trp(1-Me) = Cn1cc(C[C@H](N)C(=O)O)c2ccccc21; NMeL = CN[C@@H](CC(C)C)C(=O)O; Pra = C#CC[C@H](N)C(=O)O
With a cut-off of 1 µM, any MIC strictly below it is called true (1); any MIC meeting it or above is called false (0).

Illustrative cases are given below, each with its answer.
molecule	assigned category
COC(c1ccccc1)C1NC(=O)C(C)NC(=O)C(CC(C)CO)N(C)C(=O)C(Cc2cn(Cc3cn(CCOCCOCCOCCOCCn4cc(Cn5cc(CC6NC(=O)C(C(C)C)NC(=O)C(CC(C)C)N(C)C(=O)C(C(C)C)NC(=O)C(C(OC)c7ccccc7)NC(=O)C(C)NC(=O)C(CC(C)CO)N(C)C6=O)c6ccccc65)nn4)nn3)c3ccccc23)NC(=O)C(C(C)C)NC(=O)C(CC(C)C)N(C)C(=O)C(C(C)C)NC1=O (stereo not shown)	false (0)
COc1c(N2C[C@@H]3CCCN[C@@H]3C2)c(F)cc2c(=O)c(C(=O)O)cn(C3CC3)c12 [Moxifloxacin, reference compound]	false (0)
COC(c1ccccc1)C1NC(=O)C(C)NC(=O)C(CC(C)CO)N(C)C(=O)C(Cc2cn(C)c3ccccc23)NC(=O)C(Cc2cn(CCCCCn3cc(CC4NC(=O)C(CC(C)C)N(C)C(=O)C(C(C)C)NC(=O)C(C(OC)c5ccccc5)NC(=O)C(C)NC(=O)C(CC(C)CO)N(C)C(=O)C(Cc5cn(C)c6ccccc56)NC4=O)nn3)nn2)NC(=O)C(CC(C)C)N(C)C(=O)C(C(C)C)NC1=O (stereo not shown)	false (0)

MIC strictly < 1 µM for this molecule? CC[C@H]1OC(=O)[C@H](C)[C@@H](O[C@H]2C[C@@](C)(OC)[C@@H](O)[C@H](C)O2)[C@H](C)[C@@H](O[C@@H]2O[C@H](C)C[C@H](N(C)C)[C@H]2O)[C@](C)(OC)C[C@@H](C)C(=O)[C@H](C)[C@@H](O)[C@]1(C)O [Clarithromycin, reference compound]
true (1)

MIC strictly < 1 µM for this molecule? C#CC[C@@H]1NC(=O)[C@H](CC(C)C)N(C)C(=O)[C@H](C(C)C)NC(=O)[C@H]([C@H](OC)c2ccccc2)NC(=O)[C@H](C)NC(=O)[C@H](C[C@@H](C)CO)N(C)C(=O)[C@H](Cc2cn(C)c3ccccc23)NC1=O [Compound 10] (cyclo(A[Phe(βR-OMe)]V[NMeL][Pra][Trp(1-Me)][NMeLeu(5-OH,4R)]))
false (0)

MIC strictly < 1 µM for this molecule? NCC[C@H](O)C(=O)N[C@@H]1C[C@H](N)[C@@H](O[C@H]2O[C@H](CN)[C@@H](O)[C@H](O)[C@H]2O)[C@H](O)[C@H]1O[C@H]1O[C@H](CO)[C@@H](O)[C@H](N)[C@H]1O [Amikacin, reference compound]
true (1)

MIC strictly < 1 µM for this molecule? C#CCn1cc(C[C@@H]2NC(=O)[C@H](C(C)C)NC(=O)[C@H](CC(C)C)N(C)C(=O)[C@H](C(C)C)NC(=O)[C@H]([C@H](OC)c3ccccc3)NC(=O)[C@H](C)NC(=O)[C@H](C[C@@H](C)CO)N(C)C2=O)c2ccccc21 [Compound 5] (cyclo(A[Phe(βR-OMe)]V[NMeL]V[X1][NMeLeu(5-OH,4R)]))
false (0)
